- ASSAY_SUMMARY: in vitro
- MEASUREMENT_PARAMETERS: human, CC50 (uM) [SG]
VALUE_KIND: log10 CC50 (log10 of the value in µM)
Remember, log10 of CC50, in µM.

>  <MOLECULE>
CN(C)[C@H]1CC[C@@H](c2ccc(Cl)c(Cl)c2)c2ccc(NS(C)(=O)=O)cc21 [Dimethyl Sertraline Reverse Sulfonamide]

>  <OBSERVED_MEASUREMENT>
1.22

$$$$
>  <MOLECULE>
CSc1cc(S(N)(=O)=O)c(Oc2cc(Br)ccc2CN(C)C)cc1C

>  <OBSERVED_MEASUREMENT>
1.65

$$$$

Lab note: measured log10 CC50 of CSc1ccc(Oc2ccc(N(C)C)cc2CN(C)C)cc1C was 1.59

# log10 CC50 (molecule: CC(=O)N(C)c1ccc2c(c1)[C@@H](N(C)C)CC[C@H]2c1ccc(Cl)c(Cl)c1 ) is 1.16

The reported log10 CC50 of the molecule CN(C(=O)c1ccc2c(c1)[C@@H](N(C)C)CC[C@H]2c1ccc(Cl)c(Cl)c1)C1CC1 was 1.42

Reported log10 CC50 of CN[C@H]1CC[C@@H](c2ccc(Cl)c(Cl)c2)c2ccc(CO)cc21 : 1.15

The reported log10 CC50 of the molecule CN[C@H]1CC[C@@H](c2ccc(Cl)c(Cl)c2)c2ccc(NC(=O)C3CCCC3)cc21 was 0.85

Sure, the documented log10 CC50 for CSc1ccc(Oc2ccc(S(N)(=O)=O)cc2CN2CCN(C(C)C)CC2)cc1C is 1.39

----------
- ASSAY_SUMMARY: in vitro
- MEASUREMENT_PARAMETERS: human, CC50
Counter-ions that a name gives are not always drawn.
VALUE_KIND: CC50 at 48 h (µM)
Note: unit µM is implicit; provide only the numeric part.

Form: molecule = CN[C@H]1CC[C@@H](c2ccc(Cl)c(Cl)c2)c2ccccc21 [Sertraline (e.g., hydrochloride), Sertraline, reference compound] ; CC50 at 48 h = 8.83

----------
The following compounds are listed with their measured Emax values.
- Tested on: Huh7 cells expressing a subgenomic RNA replicon of Con1 (genotype 1b) sequence origin
- ASSAY_SUMMARY: microbe, parasite or virus in culture
- MEASUREMENT_PARAMETERS: Hepatitis C virus, Huh-7, read-out: Max Effect @CC30 (inhibition)
# output: bare number, implied unit %

The following compounds have reported results that may help.
>  <COMPOUND>
CN[C@H]1CC[C@@H](c2ccc(Cl)c(Cl)c2)c2ccccc21 [Sertraline, sertraline, reference compound]

>  <Emax, %>
68.5

$$$$
>  <COMPOUND>
CCCCC(=O)Nc1ccc2c(c1)[C@@H](NC)CC[C@H]2c1ccc(Cl)c(Cl)c1 [Sertraline A-Ring Reverse Pentanamide]

>  <Emax, %>
33.1

$$$$
>  <COMPOUND>
CSc1ccc(Oc2ccc(S(N)(=O)=O)cc2CN(C)C)cc1

>  <Emax, %>
83.2

$$$$
>  <COMPOUND>
CN(C)[C@H]1CC[C@@H](c2ccc(Cl)c(Cl)c2)c2ccc(C(N)=O)cc21

>  <Emax, %>
94.8

$$$$

// Emax lookup, compound = CN[C@H]1CC[C@@H](c2ccc(Cl)c(Cl)c2)c2ccc(CN)cc21 , result: 85.9

// Emax value for CN[C@H]1CC[C@@H](c2ccc(Cl)c(Cl)c2)c2ccc(NC(C)=O)cc21 [Sertraline A-Ring Reverse Carboxamide] : 87.7

----------
- ASSAY_SUMMARY: in vitro
- MEASUREMENT_PARAMETERS: human, CC50 (uM) [SG]
VALUE_KIND: CC50 (µM)
Respond with the bare value in µM.

>  <COMPOUND>
CSc1ccc(Oc2ccc(S(N)(=O)=O)cc2CN2CCCCC2)cc1C [Compound 73]

>  <VALUE_UNITS>
µM

>  <CC50>
37.9

$$$$
>  <COMPOUND>
CN[C@H]1CC[C@@H](c2ccc(Cl)c(Cl)c2)c2ccc(NS(=O)(=O)c3cn(C)cn3)cc21

>  <VALUE_UNITS>
µM

>  <CC50>
13.6

$$$$

Moving on to the next compound.
GET /value?item= CNC1CCC(c2ccc(Oc3ccccc3)cc2)c2ccccc21 (stereo not shown) [Sertraline B-ring para-Phenoxy] &field=CC50 returns 7.85

----------
- System: Huh7 cells expressing a subgenomic RNA replicon of Con1 (genotype 1b) sequence origin
- ASSAY_SUMMARY: microbe, parasite or virus in culture
- MEASUREMENT_PARAMETERS: Hepatitis C virus, Huh-7
VALUE_KIND: IC90 (µM)
Give just the numeric value; µM need not be written.

>  <COMPOUND>
CNCc1cc(S(N)(=O)=O)ccc1Oc1ccc(C)c(C)c1

>  <VALUE_UNITS>
µM

>  <IC90>
39.6

$$$$

Then there is this compound:
Memo: CSc1ccc(Nc2ccc(S(N)(=O)=O)cc2CN(C)C)cc1C , reported IC90: 17

----------
Structures can show the parent of a compound that is named as a salt.
# Huh7 cells expressing a subgenomic RNA replicon of Con1 (genotype 1b) sequence origin: pIC50 values follow
Scale: negative log10 of molar concentration, which is what pIC50 denotes.

These recorded examples may help you get a feel for the data.
>  <COMPOUND>
CC1=C(/C=C/C(C)O)C(C)(C)CCC1 (stereo not drawn) [Beta-Ionol]

>  <OBSERVED_MEASUREMENT>
4.68

$$$$
>  <COMPOUND>
CCCCC1C(=O)N(c2ccccc2)N(c2ccc(O)cc2)C1=O (stereo not shown) [Oxyphenbutazone (e.g., hydrate), oxyphenbutazone, reference compound]

>  <OBSERVED_MEASUREMENT>
5.38

$$$$
>  <COMPOUND>
COc1ccc(-c2nc(C(=O)N3CCN(C)CC3)sc2-c2ccc(OC)cc2)cc1 [FR122047, reference compound]

>  <OBSERVED_MEASUREMENT>
4.64

$$$$
>  <COMPOUND>
Cl.N[C@H]1CC[C@@H](c2ccc(Cl)c(Cl)c2)c2ccccc21 [(1S,4S)-Desmethyl Sertraline, Hydrochloride]

>  <OBSERVED_MEASUREMENT>
5.27

$$$$
>  <COMPOUND>
C/C1=C2/[N-][C@H]([C@H](CC(N)=O)[C@@]2(C)CCC(=O)NC[C@H](C)OP(=O)([O-])O[C@H]2[C@@H](O)[C@@H](n3cnc4cc(C)c(C)cc43)O[C@@H]2CO)[C@]2(C)N=C(/C(C)=C3N=C(/C=C4N=C1[C@@H](CCC(N)=O)C\4(C)C)[C@@H](CCC(N)=O)[C@]\3(C)CC(N)=O)[C@@H](CCC(N)=O)[C@]2(C)CC(N)=O.[CH3-].[Co+3] [Mecobalamin, mecobalamin, reference compound]

>  <OBSERVED_MEASUREMENT>
6.75

$$$$
>  <COMPOUND>
O=c1cc(N2CCOCC2)oc2c1ccc1ccccc12 [DNA-PK inhibitor II, reference compound]

>  <OBSERVED_MEASUREMENT>
5.19

$$$$
>  <COMPOUND>
O=C1C(Cl)=C(NCCN2CCOCC2)C(=O)c2ncccc21 [NSC 663284, reference compound]

>  <OBSERVED_MEASUREMENT>
6.21

$$$$
>  <COMPOUND>
COc1ccc(CCN(C)CCC[C@](C#N)(c2ccc(OC)c(OC)c2)C(C)C)cc1OC [R(+)-Verapamil (e.g., hydrochloride), R(+)-Verapamil, reference compound]

>  <OBSERVED_MEASUREMENT>
4.80

$$$$
>  <COMPOUND>
N#C/C(=C\c1ccc(O)c(O)c1)C(N)=O [Tyrphostin 46, tyrphostin A46, reference compound]

>  <OBSERVED_MEASUREMENT>
4.67

$$$$
>  <COMPOUND>
Cc1cc(N)c2ccccc2c1O [Vitamin K5]

>  <OBSERVED_MEASUREMENT>
4.71

$$$$

// pIC50 (Huh7 cells expressing a subgenomic RNA replicon of Con1 (genotype 1b) sequence origin) for N#C/C(=C/c1ccc(O)c(O)c1)C(=O)NCc1ccccc1 [AG-490, tyrphostin AG-490, reference compound] = 5.30

pIC50 of CCCCC(CC)COC(=O)c1ccc(N(C)C)cc1 (stereo not shown) [Padimate O] , assay on Huh7 cells expressing a subgenomic RNA replicon of Con1 (genotype 1b) sequence origin, is 5.26

Log: Huh7 cells expressing a subgenomic RNA replicon of Con1 (genotype 1b) sequence origin, compound OCCN1CCN(CC/C=C2/c3ccccc3Sc3ccc(C(F)(F)F)cc32)CC1 [Flupentixol (e.g., dihydrochloride), Flupentixol, reference compound] , pIC50 = 5.44

----------
Quick reference: log10 of IC90 of the listed items.
- Tested on: Huh7 cells expressing a subgenomic RNA replicon of Con1 (genotype 1b) sequence origin
- ASSAY_SUMMARY: microbe, parasite or virus in culture
- MEASUREMENT_PARAMETERS: Hepatitis C virus, Huh-7
Units before log transform: µM; reported quantity: IC90; transform: log10.

Study these solved cases before continuing.
>  <MOLECULE>
CSc1ccc(Oc2ccc(S(N)(=O)=O)cc2CNCCN(C)C)cc1C

>  <log10 of IC90>
0.77

$$$$
>  <MOLECULE>
CSc1ccc(Oc2ccc(C#N)cc2CN(C)C)cc1C

>  <log10 of IC90>
1.06

$$$$
>  <MOLECULE>
CN[C@H]1CC[C@@H](c2ccc(Cl)c(Cl)c2)c2ccc(CN)cc21

>  <log10 of IC90>
0.52

$$$$
>  <MOLECULE>
CC(C)C1CCC(c2ccc(Cl)c(Cl)c2)c2ccccc21 (stereo not drawn)

>  <log10 of IC90>
1.51

$$$$
>  <MOLECULE>
CSc1ccc(Oc2ccc([N+](=O)[O-])cc2CN(C)C)cc1C

>  <log10 of IC90>
0.85

$$$$
>  <MOLECULE>
CSc1ccc(Oc2ccc(S(N)(=O)=O)cc2CN2CCC[C@@H]2CO)cc1C

>  <log10 of IC90>
1.25

$$$$
>  <MOLECULE>
CSc1ccc(Oc2ccc(S(N)(=O)=O)cc2CNC[C@@H](C)O)cc1C

>  <log10 of IC90>
1.18

$$$$
>  <MOLECULE>
CNCc1cc(S(N)(=O)=O)ccc1Oc1ccc(SC)c(C)c1

>  <log10 of IC90>
1.00

$$$$
>  <MOLECULE>
CSc1ccc(Oc2ccc(S(N)(=O)=O)cc2CN2CCC[C@H]2CO)cc1C

>  <log10 of IC90>
1.25

$$$$
>  <MOLECULE>
CSc1ccc(Oc2ccc(S(N)(=O)=O)cc2CN(C)C)cc1

>  <log10 of IC90>
1.78

$$$$

So for CN[C@H]1CC[C@@H](c2ccc(Cl)c(Cl)c2)c2ccc(CO)cc21 , the logged log10 of IC90 turned out to be 1.05

# molecule CSc1ccc(Oc2ccc(S(N)(=O)=O)cc2CNCCO)cc1C ; its log10 of IC90 = 1.18

Reported log10 of IC90 of CNCc1ccccc1Oc1ccc(C(F)(F)F)cc1 : 1.70

The reported log10 of IC90 of the molecule CSc1ccc(N2CN(C)Cc3cc(S(N)(=O)=O)ccc32)cc1C was 1.11

Record summary for CNS(=O)(=O)c1ccc(Oc2ccc(SC)c(C)c2)c(CN(C)C)c1 : reported log10 of IC90 = 1.17
